So I've got a bunch of compounds here, and I need their TGI values.
- Tested on: Panel renal (Carcinoma cell lines)
- Assay explanation: Anticancer activity against renal cancer cell lines of NCI60 panel
- Assay type: functional
- Run parameters: Homo sapiens, read-out: pTGI (converted)
Counter-ions that a name gives are not always drawn.
Answer in µM, number only, no unit symbol.

The compound listed as COc1ccc2c(c1)/C(=C\c1cc(OC)c(OC)c(OC)c1)C(=O)N2 shows TGI equal to 19.1

The compound listed as COc1cc(/C=C2/C(=O)Nc3ccc(O)cc32)cc(OC)c1OC shows TGI equal to 44.7

The compound listed as COc1cc(/C=C2/C(=O)Nc3ccccc32)cc(OC)c1OC shows TGI equal to 75.9

The compound listed as COc1cc(/C=C2/C(=O)N(c3ccccc3)c3ccccc32)cc(OC)c1OC shows TGI equal to 23.4

The compound listed as COc1cc(/C=C2/C(=O)Nc3ccc(Cl)cc32)cc(OC)c1OC shows TGI equal to 64.6

The compound listed as COc1cc(/C=C2/C(=O)N(C)c3ccccc32)cc(OC)c1OC shows TGI equal to 61.7

The compound listed as COc1cc2c(cc1C)NC(=O)/C2=C/c1cc(OC)c(OC)c(OC)c1 shows TGI equal to 89.1

The compound listed as CC[C@]1(O)C[C@H]2CN(CCc3c([nH]c4ccccc34)[C@@](C(=O)OC)(c3cc4c(cc3OC)N(C=O)[C@H]3[C@@](O)(C(=O)OC)[C@H](OC(C)=O)[C@]5(CC)C=CCN6CC[C@]43[C@@H]65)C2)C1 [VINCRISTINE SULFATE] shows TGI equal to 20
